# Test system: OVCAR-8
# protocol details: NCI tumour cell line growth inhibition, 48 h
Activity calls are given as the source filed them. Cut-off read from the data, not from the text of the source: active = GI50 up to about 1.1 µM and inactive = higher.
Can you answer with just one of these options? class 1 (active), class 0 (inactive)

Q: Dear all, I need the recorded test outcome for `CN1C[C@H]2[C@@H](C1=O)[C@H](c1ccccc1)ON2C` , thank you.
Result: class 0

Q: Outcome logged for `COc1cc(/C=N/c2nncs2)ccc1O` in this assay:
Result: class 0

Q: Give the logged outcome of this assay for the following molecule: `CNc1ncnc2c1cnn2Cc1cn(CCCCO)nn1`
Result: class 0

Q: Given `COc1ccc(C[C@H]2NC(=O)/C=C/C[C@@H]([C@H](C)[C@H]3O[C@@H]3c3ccccc3)OC(=O)[C@H](CC(C)C)OC(=O)[C@H](C)CNC2=O)cc1` , state the outcome it received in this test.
Result: class 1

Q: // outcome(item) with item = `C[n+]1c2ccccc2c(CNc2ccc(S(=O)(=O)N=C(N)N)cc2)c2ccccc21`
Result: class 0

Q: Please let me know the test result on file for CN(CCC(=O)N1CC(CCl)c2ccc([N+](=O)[O-])cc21)CCC(=O)N1CC(CCl)c2ccc([N+](=O)[O-])cc21 (configuration not stated) .
Result: class 0

Q: Returns: the outcome recorded for `CC(=O)/C(C)=N/NC(=O)c1ccccc1O` in this assay.
Result: class 0

Q: I'd appreciate the recorded outcome for COC1=C2C=[N+](C)C3C(=C2C=CC1OC)Cc1cc2c(cc13)OCO2 (configuration not stated) from this test.
Result: class 0

Q: Record request — test call for `Clc1ncc(C(Cl)(Cl)Cl)nc1-c1ccccc1`
Result: class 0

Q: // return assay outcome for `COc1ccc(-c2nnc3c4ccccc4sn23)cc1`
Result: class 0

Q: Check the results log: what was the call for `CC(C)(C)C1=CC(O)(c2c3ccccc3c(C3(O)C=C(C(C)(C)C)C(=O)C(C(C)(C)C)=C3)c3ccccc23)C=C(C(C)(C)C)C1=O` ?
Result: class 0

Q: # fetch the recorded call for `C=C(CCC/C(C)=C/C=C/[C@]1(C)CCCc2ccoc21)CC(=O)O` here
Result: class 0

Q: GET /call?item= O=C(c1ccccc1)c1ccc2nc3n(c2c1)C(c1c(F)cccc1F)SC3 (configuration not stated) returns the recorded outcome of this test.
Result: class 0

Q: Call for entry CC1=C(C(=O)OCCO[N+](=O)[O-])C(c2ccccc2[N+](=O)[O-])C(C(=O)OC(C)C)=C(C)N1 (configuration not stated) :
Result: class 0

Q: Status in this test for `CS/C(=N\c1nccs1)NC(=O)c1cccc(Cl)c1` ?
Result: class 0

Q: # lookup: test call for O=C(c1ccccc1)N1CCC(Nc2nccs2)O1 (configuration not stated)
Result: class 0

Q: // param item: CCCCN1C(=O)C2c3[nH]c4ccccc4c3C3CCCCC3C2C1=O.CCCCN1C(=O)C2c3[nH]c4ccccc4c3[C@@H]3CCCCC3C2C1=O (configuration not stated) ; yields the recorded call
Result: class 0

Q: How did this test come out for CC1(C)CNC(=O)C2(/C=N/C(C)(C)CNC(=O)C3(/C=N/1)CCCO3)CCCO2 (configuration not stated) ?
Result: class 0

Q: Name the outcome recorded for `O=C1OC(c2ccco2)=N/C1=C\c1cccc([N+](=O)[O-])c1` in the assay.
Result: class 0

Q: Please let me know the test result on file for CC(=O)O[C@H]1[C@@H](OC2CCCC2(c2ccccc2)c2ccccc2)O[N+]([O-])=C[C@@]12COCc1cc3c(cc12)OCO3 (some centres not stated) .
Result: class 0

Q: # fetch the recorded call for CC(=O)OCC(OC(C)=O)C(OC(C)=O)C(OC(C)=O)C(/C=N\Nc1nc2ccccc2c(=O)[nH]1)=N/Nc1nc2ccccc2c(=O)[nH]1 (configuration not stated) here
Result: class 0

Q: Please let me know the test result on file for Cc1ccc([S+]([O-])(=Nc2ccccc2)C(C(C)C)C(C)(C)Cl)cc1 (configuration not stated) .
Result: class 0

Q: How did this test come out for COC(=O)C1=C(C)NC2(C)OC(C)(O)C(C(C)=O)C12C(C)=O (configuration not stated) ?
Result: class 0

Q: Outcome logged for N#Cc1cc2c(n(C3OC(CO)C(O)C(O)C3O)c1=S)CCCCCC2 (configuration not stated) in this assay:
Result: class 0

Q: Check the results log: what was the call for `COC(=O)[C@H](Cc1c[nH]c2ccccc12)NC(=O)c1ccccc1I` ?
Result: class 0

Q: Please share the test call associated with `c1ccc2sc(SSSc3nc4ccccc4s3)nc2c1` .
Result: class 0

Q: // outcome(item) with item = CC(=O)OC1COC(N2C(=O)C(=O)c3cc(Br)c([N+](=O)[O-])cc32)C(OC(C)=O)C1OC(C)=O (configuration not stated)
Result: class 0

* * *

Give measured GI50 for each item. Keep answers brief.
# System: SK-MEL-28
# protocol details: NCI tumour cell line growth inhibition, 48 h
Structures can show the parent of a compound that is named as a salt. Activity calls are given as the source filed them. Cut-off read from the data, not from the text of the source: active = GI50 up to about 1.1 µM and inactive = higher.

Q: Kindly indicate its recorded GI50. Item: C[N+]12C=CC=C1C(N1CCCC1)c1scc(-c3ccccc3)c12 (configuration not stated)
Result: 37.2 µM (inactive)

Q: Give GI50 for CCc1ccc2c(c1)N(CC(C)CN(C)C)c1ccccc1S2 (configuration not stated) [ETYMEMAZINE HYDROCHLORIDE]
Result: 2.21 µM (inactive)

Q: For the molecule O=C(/N=C1/NCC(CN2CCN(c3ccccc3)CC2)O1)Nc1ccccc1 (configuration not stated) , give its measured GI50 value.
Result: > 100 µM (inactive)

Q: State its GI50 for this molecule: `COc1ccc(-c2cc(=O)c3ccccc3o2)cc1N`
Result: 57.8 µM (inactive)

Q: Provide GI50 value for the following molecule: `CCN(CC)CCCNc1ccc([N+](=O)[O-])c2nc3ccccc3c(N)c12`
Result: 3.98 µM (inactive)

Q: Indicate the recorded GI50 value for this molecule: `COC(=O)c1c(C)cccc1/C=C1\Cc2ccc(C)c(C)c2C1=O`
Result: > 100 µM (inactive)

Q: Quick one: give measured GI50 for `N#Cc1c(N2CCOCC2)ncn(-c2ccccc2)c1=O`
Result: > 100 µM (inactive)

Q: Specify measured GI50 for `Clc1ccc(/C=C/c2csnn2)cc1` .
Result: > 100 µM (inactive)

Q: Look up and report measured GI50 for this entry: `CC(=O)N(CCN1C(=O)c2ccccc2C1=O)CCN1C(=O)c2ccccc2C1=O`
Result: > 100 µM (inactive)

Q: Return GI50 for the following molecule: `COC(=O)[C@H](Cc1c[nH]c2ccccc12)NC(=O)c1ccccc1I`
Result: 89.3 µM (inactive)

Q: Give recorded GI50. Oc1ccc(O)c(CNc2ccc(C(O)C(F)(F)F)cc2)c1 (configuration not stated)
Result: 31.6 µM (inactive)

Q: Entry COc1cccc(NC(=O)CC(=O)N2N=C(N(CCC#N)c3ccc(Cl)cc3)CC2c2ccccc2)c1 (configuration not stated) needs its GI50 filled in; supply it.
Result: > 100 µM (inactive)

Q: Supply recorded GI50 for `COc1ccccc1NC(=O)O/N=C(/Cl)C(C)C` here.
Result: 13.6 µM (inactive)

Q: # return recorded GI50 for entry `CC(=O)Oc1ccc2c3c1[C@@H]1O[C@@H]1c1cccc(c1-3)[C@@H]1O[C@H]21`
Result: 1.96 µM (inactive)

Q: Report measured GI50; entry is `O=C1C[C@@H](C(=O)OCc2ccccc2)NC(=O)C[C@@H](C(=O)OCc2ccccc2)NC(=O)C[C@@H](C(=O)OCc2ccccc2)N1`
Result: > 100 µM (inactive)

Q: Please indicate GI50 recorded for `CCc1cccc(CC)c1NC(=O)C(=O)Cc1nc2ccccc2o1`
Result: > 100 µM (inactive)

Q: Look up GI50 of COC(=O)C1CSC(c2csc(CCN)n2)=N1 (configuration not stated) and report it.
Result: > 100 µM (inactive)

* * *

# Test system: SK-MEL-2
# protocol details: NCI tumour cell line growth inhibition, 48 h
Calls of active or inactive are those of the source. Rule as the data show it: active = GI50 up to about 1.1 µM and inactive = higher.
reported metric: GI50

Q: Please tell me the measured GI50 for Nc1ncnc2c1ncn2C1(CO)OC(CO)C(O)C1O (configuration not stated) ; system: SK-MEL-2.
Result: > 100 µM (inactive)

Q: Param request: GI50 | system SK-MEL-2 | item CC(=O)Nc1ccc(C(=O)NN2C(=O)CSC2c2ccc([N+](=O)[O-])cc2)cc1 (configuration not stated)
Result: > 100 µM (inactive)

Q: Please report GI50 with SK-MEL-2 for item `CC(C)OP(=O)(OC(C)C)/C(Cl)=N/Nc1ccc([N+](=O)[O-])cc1` .
Result: > 100 µM (inactive)

Q: Please indicate recorded GI50 of Cc1ccc(S(=O)(=O)OC2C(C3COC(C)(C)O3)OC3OC(C)(C)OC32)cc1 (configuration not stated) measured with SK-MEL-2.
Result: > 100 µM (inactive)

Q: // output GI50; input `N#CC1(C#N)[C@@H]2CCC=C(Sc3ccccc3)[C@@H]21` ; system SK-MEL-2
Result: 14.6 µM (inactive)

Q: State GI50 (SK-MEL-2) of CC1(C)CCOC(=O)C(Cl)CC1Cl (configuration not stated) .
Result: > 100 µM (inactive)

Q: Please report the measured GI50 for `O=C(Nc1ccccc1)OCCN=C1c2ccccc2CCc2ccccc21` tested on SK-MEL-2.
Result: 15 µM (inactive)

Q: Report value: GI50, system: SK-MEL-2, compound: CC[C@@H](O)C[C@H]1CCC[C@@]2(C[C@@H]3OC(=O)/C=C/[C@@](C)(O)[C@@H](O)[C@H](C)[C@@H](O)[C@H](OC4CCC(N(C)C)C(C)O4)[C@@H](O)[C@](C)(O)CCCCC/C=C/[C@@H]4CC(C)(C)O[C@@]4(O)C[C@H](O2)[C@H]3C)O1 (some centres not stated)
Result: 10.5 µM (inactive)

Q: Look up and report GI50, with SK-MEL-2 as system, for `Clc1ccc(/C=C/c2csnn2)cc1`
Result: > 100 µM (inactive)

Q: State the measured GI50 (SK-MEL-2) of `COc1cc(OC)c2[nH]c3c(O)c(-c4c(C)cc5c([nH]c6c(OC)cc(OC)cc65)c4O)c(C)cc3c2c1`
Result: 9.25 µM (inactive)

Q: Answer briefly: GI50 recorded on SK-MEL-2 for COc1cccc(NC(=O)CC(=O)N2N=C(N(CCC#N)c3ccc(Cl)cc3)CC2c2ccccc2)c1 (configuration not stated)
Result: > 100 µM (inactive)

Q: State, for SK-MEL-2, measured GI50 of the compound listed here: COc1cccc2c1C(CO)N1C(C#N)C3CC(C(=O)O)C(C1C2)N3C (configuration not stated)
Result: 1.21 µM (inactive)

Q: Recall the reported GI50 of `COc1ccc(CNc2nc(NC3CCCCC3)nc(NC3CCCCC3)n2)cc1` on SK-MEL-2 and write it down.
Result: 11.4 µM (inactive)

Q: GET GI50 | system: SK-MEL-2 | item: Cc1ccc([S+]([O-])(=Nc2ccccc2)C(C(C)C)C(C)(C)Cl)cc1 (configuration not stated)
Result: 12.5 µM (inactive)

Q: Look up SK-MEL-2 data: GI50 of `COc1ccc(/C=C2\N=C3N(Cc4ccccc4)C=C(N)N3C2=O)cc1` , then report it.
Result: > 100 µM (inactive)

Q: Write GI50 of COC(=O)C1CSC(c2csc(CCN)n2)=N1 (configuration not stated) ; system used: SK-MEL-2
Result: > 100 µM (inactive)

Q: Retrieve GI50 on SK-MEL-2; query `Cc1nc2c(Cl)cc(Cl)cc2c(Cl)c1CCCl`
Result: 99.5 µM (inactive)
